Recorded values, source ChEMBL document CHEMBL1134437.

experiment: Cmax was determined after oral dosing of 5 mg/kg in rat; assay type: ADME, organism-based; set-up: dose 5 mg/kg, route oral; conditions: in vivo
Measurement kind: Cmax (ng/mL)

{"Smiles structure": "CN(C)CCCOc1cc(-c2ccccc2)n(-c2ccccc2)n1", "Numeric value": 1.4}

---

assay: Bovine sGC stimulation measured as relative enzyme activity (percentage of DEA/NO response for the compound to compound 3); type: functional

{"Compound": "CN(C)CCCOc1ccn(Cc2ccccc2)n1", "REA": 0.73}
{"Compound": "NCCCOc1nn(Cc2ccccc2)c2ccccc12", "REA": 0.48}
{"Compound": "CN(C)CCCOc1cc(-c2ccccc2)n(-c2ccccc2)n1", "REA": 1.28}
{"Compound": "CCCN(CCC)C(=O)c1cc(OCCCN(C)C)nn1Cc1ccccc1", "REA": 1.22}
{"Compound": "CN(C)CCCNc1cc(-c2ccccc2)[nH]n1", "REA": 0.66}
{"Compound": "CN(C)CCCOc1ccn(-c2ccccc2)n1", "REA": 0.71}
{"Compound": "CN(C)CCCCc1cc(-c2ccccc2)[nH]n1", "REA": 0.68}
{"Compound": "CN(C)CCCOc1cc(C(=O)N2CCOCC2)n(Cc2ccccc2)n1", "REA": 0.84}
{"Compound": "CC(COc1nn(Cc2ccccc2)c2ccccc12)CN(C)C (stereo unspecified)", "REA": 0.62}
{"Compound": "COc1cc(-c2cc(OCCCN(C)C)[nH]n2)cc(OC)c1OC", "REA": 1.1}
{"Compound": "Nc1ncccc1COc1cc(-c2ccccc2)[nH]n1", "REA": 0.69}
{"Compound": "CN(C)CCCOc1cc(-c2ccccc2)nn1Cc1ccccc1", "REA": 0.72}
{"Compound": "CN(C)CCCCCOc1nn(Cc2ccccc2)c2ccccc12", "REA": 0.56}
{"Compound": "c1ccc(-c2cc(OCCCN3CCCC3)n[nH]2)cc1", "REA": 0.85}
{"Compound": "CN(C)CCOc1nn(Cc2ccccc2)c2ccccc12", "REA": 0.33}
{"Compound": "CN(C)CCCOc1cc(-c2ccccc2)n(Cc2ccccc2)n1", "REA": 1.08}
{"Compound": "CC(C)n1nc(OCCCN(C)C)c2ccccc21", "REA": 0.66}
{"Compound": "CN(C)CCCOc1nn(C(=O)c2ccccc2)c2ccccc12", "REA": 1.04}
{"Compound": "Nc1cc(COc2cc(-c3ccccc3)[nH]n2)ccn1", "REA": 0.53}
{"Compound": "CN(C)CCCOc1nn(Cc2ccccc2)c2ccccc12", "REA": 1}
{"Compound": "CNC(=O)c1cc(OCCCN(C)C)nn1Cc1ccccc1", "REA": 0.95}
{"Compound": "CCN(CC)CCCOc1cc(-c2ccccc2)[nH]n1", "REA": 0.42}
{"Compound": "CN1CCCC(COc2cc(-c3ccccc3)[nH]n2)C1 (stereo unspecified)", "REA": 0.61}
{"Compound": "CN(C)CCCOc1cc(C(=O)NCc2ccccc2)n(Cc2ccccc2)n1", "REA": 1.22}
{"Compound": "CN(C)CCCOc1cc(-c2ccccc2)[nH]n1", "REA": 1.49}
{"Compound": "CN(C)CCCOc1cc(Cc2ccccc2)n[nH]1", "REA": 1.54}
